// reported melting temperature for each item listed
Test system: HeLa Kyoto;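 further: HeLa Kyoto cells synchronized by double thymidine or nocodazole block, proteins quantified by TMT10plex mass spectrometry, three independent biological replicates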
EXPERIMENTAL_PROTOCOL: melting temperature (median over replicates), in situ; higher = more thermally stable
RECORDED_CONDITIONS: cell cycle stage: mitosis
Reply numerically in °C, unit not repeated.

Some entries whose results are on file:
sequence_input="MDVNIAPLRAWDDFFPGSDRFARPDFRDISKWNNRVVSNLLYYQTNYLVVAAMMISIVGFLSPFNMILGGIVVVLVFTGFVWAAHNKDVLRRMKKRYPTTFVMVVMLASYFLISMFGGVMVFVFGITFPLLLMFIHASLRLRNLKNKLENKMEGIGLKRTPMGIVLDALEQQEEGINRLTDYISKVKE [ARL6IP5]" quantity_kind="melting temperature" unit_annotation=°C observed_measurement=57.5
sequence_input="MANSGCKDVTGPDEESFLYFAYGSNLLTERIHLRNPSAAFFCVARLQDFKLDFGNSQGKTSQTWHGGIATIFQSPGDEVWGVVWKMNKSNLNSLDEQEGVKSGMYVVIEVKVATQEGKEITCRSYLMTNYESAPPSPQYKKIICMGAKENGLPLEYQEKLKAIEPNDYTGKVSEEIEDIIKKGETQTL [GGCT]" quantity_kind="melting temperature" unit_annotation=°C observed_measurement=55.3
sequence_input="MAASAGAGAVIAAPDSRRWLWSVLAAALGLLTAGVSALEVYTPKEIFVANGTQGKLTCKFKSTSTTGGLTSVSWSFQPEGADTTVSFFHYSQGQVYLGNYPPFKDRISWAGDLDKKDASINIENMQFIHNGTYICDVKNPPDIVVQPGHIRLYVVEKENLPVFPVWVVVGIVTAVVLGLTLLISMILAVLYRRKNSKRDYTGCSTSESLSPVKQAPRKSPSDTEGLVKSLPSGSHQGPVIYAQLDHSGGHHSDKINKSESVVYADIRKN [MPZL1]" quantity_kind="melting temperature" unit_annotation=°C observed_measurement=58.1
sequence_input="MAAQKDQQKDAEAEGLSGTTLLPKLIPSGAGREWLERRRATIRPWSTFVDQQRFSRPRNLGELCQRLVRNVEYYQSNYVFVFLGLILYCVVTSPMLLVALAVFFGACYILYLRTLESKLVLFGREVSPAHQYALAGGISFPFFWLAGAGSAVFWVLGATLVVIGSHAAFHQIEAVDGEELQMEPV [RABAC1]" quantity_kind="melting temperature" unit_annotation=°C observed_measurement=58.3
sequence_input="MAASGESGTSGGGGSTEEAFMTFYSEVKQIEKRDSVLTSKNQIERLTRPGSSYFNLNPFEVLQIDPEVTDEEIKKRFRQLSILVHPDKNQDDADRAQKAFEAVDKAYKLLLDQEQKKRALDVIQAGKEYVEHTVKERKKQLKKEGKPTIVEEDDPELFKQAVYKQTMKLFAELEIKRKEREAKEMHERKRQREEEIEAQEKAKREREWQKNFEESRDGRVDSWRNFQANTKGKKEKKNRTFLRPPKVKMEQRE [DNAJC8]" quantity_kind="melting temperature" unit_annotation=°C observed_measurement=51.5
sequence_input="MAAQQRDCGGAAQLAGPAAEADPLGRFTCPVCLEVYEKPVQVPCGHVFCSACLQECLKPKKPVCGVCRSALAPGVRAVELERQIESTETSCHGCRKNFFLSKIRSHVATCSKYQNYIMEGVKATIKDASLQPRNVPNRYTFPCPYCPEKNFDQEGLVEHCKLFHSTDTKSVVCPICASMPWGDPNYRSANFREHIQRRHRFSYDTFVDYDVDEEDMMNQVLQRSIIDQ [RNF114]" quantity_kind="melting temperature" unit_annotation=°C observed_measurement=53.8

QUERY: Check the records and state melting temperature for MPEEGSGCSVRRRPYGCVLRAALVPLVAGLVICLVVCIQRFAQAQQQLPLESLGWDVAELQLNHTGPQQDPRLYWQGGPALGRSFLHGPELDKGQLRIHRDGIYMVHIQVTLAICSSTTASRHHPTTLAVGICSPASRSISLLRLSFHQGCTIASQRLTPLARGDTLCTNLTGTLLPSRNTDETFFGVQWVRP [CD70]
RESULT: 57.1

QUERY: Quick one: give measured melting temperature for MVWKRLGALVMFPLQMIYLVVKAAVGLVLPAKLRDLSRENVLITGGGRGIGRQLAREFAERGARKIVLWGRTEKCLKETTEEIRQMGTECHYFICDVGNREEVYQTAKAVREKVGDITILVNNAAVVHGKSLMDSDDDALLKSQHINTLGQFWTTKAFLPRMLELQNGHIVCLNSVLALSAIPGAIDYCTSKASAFAFMESLTLGLLDCPGVSATTVLPFHTSTEMFQGMRVRFPNLFPPLKPETVARRTVEAVQLNQALLLLPWTMHALVILKSILPQAALEEIHKFSGTYTCMNTFKGRT [DHRS3]
RESULT: 53.1
